Entry source: patent US9845340B2

Documented WC ELISA across a set of sequences
Target: 3T3 cells that over-express human cMet (Homo sapiens, UniProt P08581)
Construct: expressed in transfected cells; host or cells: 3T3 cells
Sequence (P08581 25-1390): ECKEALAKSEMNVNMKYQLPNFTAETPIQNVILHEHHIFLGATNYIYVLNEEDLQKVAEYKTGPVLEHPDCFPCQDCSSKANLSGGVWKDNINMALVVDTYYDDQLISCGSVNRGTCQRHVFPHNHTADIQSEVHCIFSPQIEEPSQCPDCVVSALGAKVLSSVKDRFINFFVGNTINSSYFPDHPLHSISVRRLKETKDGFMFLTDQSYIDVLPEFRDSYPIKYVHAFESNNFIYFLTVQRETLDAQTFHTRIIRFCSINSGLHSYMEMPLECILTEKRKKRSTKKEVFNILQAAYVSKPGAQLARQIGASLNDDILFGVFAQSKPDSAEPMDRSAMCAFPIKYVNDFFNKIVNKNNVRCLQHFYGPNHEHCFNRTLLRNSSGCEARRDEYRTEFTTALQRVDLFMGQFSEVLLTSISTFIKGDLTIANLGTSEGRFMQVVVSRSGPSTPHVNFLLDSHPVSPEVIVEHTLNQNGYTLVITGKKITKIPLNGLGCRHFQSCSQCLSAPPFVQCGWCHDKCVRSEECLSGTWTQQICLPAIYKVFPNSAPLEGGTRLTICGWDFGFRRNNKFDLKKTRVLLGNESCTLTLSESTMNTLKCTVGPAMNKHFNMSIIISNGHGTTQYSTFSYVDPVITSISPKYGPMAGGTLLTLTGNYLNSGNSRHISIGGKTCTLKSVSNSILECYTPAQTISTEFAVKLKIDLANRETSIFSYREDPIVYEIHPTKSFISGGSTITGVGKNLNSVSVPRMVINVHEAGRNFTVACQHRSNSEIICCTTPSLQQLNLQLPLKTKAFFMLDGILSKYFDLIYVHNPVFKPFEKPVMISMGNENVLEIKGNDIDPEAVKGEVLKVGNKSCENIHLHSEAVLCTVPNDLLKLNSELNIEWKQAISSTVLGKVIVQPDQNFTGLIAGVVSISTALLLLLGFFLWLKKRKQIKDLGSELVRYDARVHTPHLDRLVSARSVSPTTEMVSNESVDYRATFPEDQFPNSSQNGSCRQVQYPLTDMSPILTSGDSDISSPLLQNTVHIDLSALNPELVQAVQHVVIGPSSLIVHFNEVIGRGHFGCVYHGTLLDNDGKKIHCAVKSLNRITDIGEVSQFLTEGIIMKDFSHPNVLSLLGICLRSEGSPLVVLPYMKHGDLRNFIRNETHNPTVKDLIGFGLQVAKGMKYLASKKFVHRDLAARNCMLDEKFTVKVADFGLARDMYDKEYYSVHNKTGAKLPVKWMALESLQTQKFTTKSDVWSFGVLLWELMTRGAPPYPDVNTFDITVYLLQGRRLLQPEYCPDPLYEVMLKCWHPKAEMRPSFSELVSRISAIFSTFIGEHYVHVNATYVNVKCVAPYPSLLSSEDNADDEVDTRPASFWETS
Experiment: Whole cell ELISA of peptide-displaying phage
Format: cell-based
Conditions: phage isolate; 3T3 cells expressing human cMet vs. non-expressing 3T3 cells
Provide only the numeric value, understood in fold over background.

Below: 3 sequences and their reported WC ELISA.
GDPWWCFEKDSFIPFACWHHDP (Synthetically generated cMet-binding peptide sequence) [SEQ ID NO: 396] ... 1.30
GSYYDCREFQCNKPAP (Synthetically generated cMet-binding peptide sequence) [SEQ ID NO: 002] ... 1.33
GDLLGCGYQEKGGEYKCRFNDP (Synthetically generated cMet-binding peptide sequence) [SEQ ID NO: 395] ... 1.40

Query: Param item = AGGHWCLELKHLCPPYGT (Synthetically generated cMet-binding peptide sequence) [SEQ ID NO: 044] ; retrieve measured WC ELISA.
Response: 1.23

Query: Param item = GDHLTCEFRDDGWKEHCWWSDP (Synthetically generated cMet-binding peptide sequence) [SEQ ID NO: 403] ; retrieve measured WC ELISA.
Response: 1.23

Query: Param item = AGYWDCKGPPHFFCEWHGT (Synthetically generated cMet-binding peptide sequence) [SEQ ID NO: 080] ; retrieve measured WC ELISA.
Response: 1.23

---

Biological target: cMet-Fc fusion protein (Homo sapiens, UniProt P08581)
Sequence (P08581 25-307 limits assumed): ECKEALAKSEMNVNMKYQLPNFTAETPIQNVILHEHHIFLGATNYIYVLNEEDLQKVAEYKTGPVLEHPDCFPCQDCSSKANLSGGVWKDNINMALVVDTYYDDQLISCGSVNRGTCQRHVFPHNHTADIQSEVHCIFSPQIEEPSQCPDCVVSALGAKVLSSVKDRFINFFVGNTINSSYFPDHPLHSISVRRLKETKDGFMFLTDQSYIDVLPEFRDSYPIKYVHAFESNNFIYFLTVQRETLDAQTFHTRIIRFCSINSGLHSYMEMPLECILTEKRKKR
Sequence (P08581 with tags, fused parts or gaps limits assumed): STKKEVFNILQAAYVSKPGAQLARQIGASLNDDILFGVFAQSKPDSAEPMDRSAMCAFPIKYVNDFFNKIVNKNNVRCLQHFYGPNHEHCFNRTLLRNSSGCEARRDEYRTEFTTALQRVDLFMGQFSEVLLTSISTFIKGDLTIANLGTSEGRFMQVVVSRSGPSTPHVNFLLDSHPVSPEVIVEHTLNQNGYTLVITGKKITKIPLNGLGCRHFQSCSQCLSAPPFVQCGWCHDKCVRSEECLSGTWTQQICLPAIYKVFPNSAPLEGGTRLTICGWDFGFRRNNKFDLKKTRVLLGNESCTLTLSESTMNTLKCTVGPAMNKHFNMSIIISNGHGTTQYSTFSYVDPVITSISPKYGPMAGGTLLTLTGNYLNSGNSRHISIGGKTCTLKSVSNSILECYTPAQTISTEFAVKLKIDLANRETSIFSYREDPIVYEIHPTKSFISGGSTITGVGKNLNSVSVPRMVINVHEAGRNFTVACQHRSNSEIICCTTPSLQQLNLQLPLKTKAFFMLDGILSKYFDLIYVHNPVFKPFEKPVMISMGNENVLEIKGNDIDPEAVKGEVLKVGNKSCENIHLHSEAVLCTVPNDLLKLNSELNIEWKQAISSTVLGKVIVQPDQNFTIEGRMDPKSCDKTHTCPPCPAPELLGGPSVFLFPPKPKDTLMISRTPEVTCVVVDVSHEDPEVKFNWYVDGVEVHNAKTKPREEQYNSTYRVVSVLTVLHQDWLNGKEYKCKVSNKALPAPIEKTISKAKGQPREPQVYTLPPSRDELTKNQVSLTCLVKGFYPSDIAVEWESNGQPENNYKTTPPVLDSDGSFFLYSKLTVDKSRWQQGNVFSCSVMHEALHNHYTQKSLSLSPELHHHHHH
Assay: Protein phage ELISA: peptide-displaying phage binding to soluble cMet-Fc versus TRAIL-Fc
Conditions: phage isolate; cMet-Fc vs. TRAIL-Fc
Protocol: Protein phage ELISAs using peptide-displaying phage isolates from the various selection campaigns were performed to determine specificity of the peptides for cMet versus an unrelated Fc-fusion protein (TRAIL-Fc). […] The plates were incubated for 2 hours at room temperature and washed with PBST. cMet-binding peptide-displaying phage were detected using an HRP-conjugated anti-M13 antibody.
Label rule not met if Protein ELISA falls below 10 fold over background; label rule met in every other case.

AGKYMCEGFEWFCEMWGT (Synthetically generated cMet-binding peptide sequence) [SEQ ID NO: 037] ... rule not met
AGFVNCKGPPTFECILTGT (Synthetically generated cMet-binding peptide sequence) [SEQ ID NO: 057] ... rule met
GSWRFCGGEYSFQVCQDVAP (Synthetically generated cMet-binding peptide sequence) [SEQ ID NO: 365] ... rule met
AGKQWCVVWEETCDQLGT (Synthetically generated cMet-binding peptide sequence) [SEQ ID NO: 039] ... rule not met
AQELFQILEKQMWSDFMEWATP (Synthetically generated cMet-binding peptide sequence) [SEQ ID NO: 474] ... rule not met

# ---- query sequence ----
Query: Form field: Protein ELISA at least 10 fold over background? Entry: GDASWCDENSPAAWFYCELWDP (Synthetically generated cMet-binding peptide sequence) [SEQ ID NO: 394]
Response: rule met

---

Molecular target: cMet-Fc fusion protein (Homo sapiens)
Assay: Protein phage ELISA: peptide-displaying phage binding to soluble cMet-Fc versus TRAIL-Fc
Conditions: phage isolate; cMet-Fc vs. TRAIL-Fc
Measured Endpoint: Protein ELISA (fold over background)
Provide only the numeric value, understood in fold over background.

Below: 5 sequences and their reported Protein ELISA.
AGYYHCIDDFPQCKWMGT (Synthetically generated cMet-binding peptide sequence) [SEQ ID NO: 017] ... 3.9
GSSQICAVYLDDTHNCERHAP (Synthetically generated cMet-binding peptide sequence) [SEQ ID NO: 373] ... 4.0
GSEFECTGWPEFRCYEYAP (Synthetically generated cMet-binding peptide sequence) [SEQ ID NO: 100] ... 8.4
AQNAVVPPPMLWSIYWDYGREG (Synthetically generated cMet-binding peptide sequence) [SEQ ID NO: 457] ... 7.0
AQGGRYPFYDTDWFKWEMYVL (Synthetically generated cMet-binding peptide sequence) [SEQ ID NO: 496] ... 3.8

Shifting focus to the sequence that follows.
Query: Param item = AQWGAVDNDWYDWEMEQIWMFE (Synthetically generated cMet-binding peptide sequence) [SEQ ID NO: 491] ; retrieve measured Protein ELISA.
Response: 3.2

---

Target: cMet-Fc fusion protein (Homo sapiens, UniProt P08581)
Assay: Protein phage ELISA: peptide-displaying phage binding to soluble cMet-Fc versus TRAIL-Fc
Details: phage isolate; cMet-Fc vs. TRAIL-Fc
Documented Protein ELISA across a set of sequences
Provide only the numeric value, understood in fold over background.

Below: 2 sequences and their reported Protein ELISA.
AGDHYCWEEWWFCWDSGT (Synthetically generated cMet-binding peptide sequence) [SEQ ID NO: 021] ... 3.5
GDASMCYDGLALRWDQCWPHDP (Synthetically generated cMet-binding peptide sequence) [SEQ ID NO: 404] ... 3.4

Shifting focus to the sequence that follows.
Query: # get_value(readout= Protein ELISA, system= cMet-Fc fusion protein (Homo sapiens, UniProt P08581)) for AQHMDPAEWDWFIRIYSPVVNP (Synthetically generated cMet-binding peptide sequence) [SEQ ID NO: 487]
Response: 3.0

---

Molecular target: 3T3 cells that over-express human cMet (Homo sapiens, UniProt P08581)
Construct: expressed in transfected cells; host or cells: 3T3 cells
Assay: Whole cell ELISA of peptide-displaying phage
Type: cell-based
Conditions: phage isolate; 3T3 cells expressing human cMet vs. non-expressing 3T3 cells
Documented WC ELISA across a set of sequences
# do not omit the unit; it follows the number

Below: 4 sequences and their reported WC ELISA.
GSSQICAVYLDDTHNCERHAP (Synthetically generated cMet-binding peptide sequence) [SEQ ID NO: 373] ... 1.30 fold over background
AGDHYCWEEWWFCWDSGT (Synthetically generated cMet-binding peptide sequence) [SEQ ID NO: 021] ... 1.37 fold over background
AQQWMFQIHQSMAWPYEWIDSY (Synthetically generated cMet-binding peptide sequence) [SEQ ID NO: 494] ... 1.23 fold over background
AGKYMCEGFEWFCEMWGT (Synthetically generated cMet-binding peptide sequence) [SEQ ID NO: 037] ... 1.43 fold over background

Shifting focus to the sequence that follows.
Query: Param item = AGHYWCAGPPTFICMGPGT (Synthetically generated cMet-binding peptide sequence) [SEQ ID NO: 062] ; retrieve measured WC ELISA.
Response: 1.40 fold over background

---

Target: cMet-Fc fusion protein (Homo sapiens, UniProt P08581)
Experiment: Protein phage ELISA: peptide-displaying phage binding to soluble cMet-Fc versus TRAIL-Fc
Conditions: phage isolate; cMet-Fc vs. TRAIL-Fc
Label Not fulfilled if Protein ELISA falls below 4 fold over background; label Fulfilled in every other case.

Please review the entries below; each comes with its answer.
AQDPGFSKHSMGHGYPSKMNWG (Synthetically generated cMet-binding peptide sequence) [SEQ ID NO: 471] ... Not fulfilled
AGMDFCEGFWFLCIGNAT (Synthetically generated cMet-binding peptide sequence) [SEQ ID NO: 035] ... Not fulfilled
AGTIRCNLAMMVCMFEGT (Synthetically generated cMet-binding peptide sequence) [SEQ ID NO: 028] ... Not fulfilled
AGVLQCIGFEWFCDIWGT (Synthetically generated cMet-binding peptide sequence) [SEQ ID NO: 022] ... Not fulfilled
AGTLSCSEEYKSCQLQGT (Synthetically generated cMet-binding peptide sequence) [SEQ ID NO: 027] ... Not fulfilled

Query: Form field: Protein ELISA at least 4 fold over background? Entry: AQFDRYWHFAWMDVSFSSGQSG (Synthetically generated cMet-binding peptide sequence) [SEQ ID NO: 465]
Response: Fulfilled

Query: Form field: Protein ELISA at least 4 fold over background? Entry: AGNLPCHWNMSVCDHQGT (Synthetically generated cMet-binding peptide sequence) [SEQ ID NO: 034]
Response: Not fulfilled

Query: Form field: Protein ELISA at least 4 fold over background? Entry: AGDWHCQGPPAFMCWMIGT (Synthetically generated cMet-binding peptide sequence) [SEQ ID NO: 065]
Response: Fulfilled

Query: Form field: Protein ELISA at least 4 fold over background? Entry: AGSYWCSGPPTFMCRYEGT (Synthetically generated cMet-binding peptide sequence) [SEQ ID NO: 085]
Response: Fulfilled

---

Target: cMet-Fc fusion protein (Homo sapiens, UniProt P08581)
Assay: Protein phage ELISA: peptide-displaying phage binding to soluble cMet-Fc versus TRAIL-Fc
Conditions: phage isolate; cMet-Fc vs. TRAIL-Fc
Documented Protein ELISA across a set of sequences
Provide only the numeric value, understood in fold over background.

Query: Param item = GSHHTCLDGFAGWRCTEVAP (Synthetically generated cMet-binding peptide sequence) [SEQ ID NO: 366] ; retrieve measured Protein ELISA.
Response: 10.4

Query: Param item = AGVIVCNLSMMYCLYPGT (Synthetically generated cMet-binding peptide sequence) [SEQ ID NO: 023] ; retrieve measured Protein ELISA.
Response: 3.2

Query: Param item = GDSYNCSWDSKTFEVTCLYADP (Synthetically generated cMet-binding peptide sequence) [SEQ ID NO: 393] ; retrieve measured Protein ELISA.
Response: 8.4
